# test target: T1, human APRIL protein (human, UniProt O75888 105-250, limits assumed)
# T1 construct: Bought protein; also called recombinant APRIL protein
# T1 sequence (looked up): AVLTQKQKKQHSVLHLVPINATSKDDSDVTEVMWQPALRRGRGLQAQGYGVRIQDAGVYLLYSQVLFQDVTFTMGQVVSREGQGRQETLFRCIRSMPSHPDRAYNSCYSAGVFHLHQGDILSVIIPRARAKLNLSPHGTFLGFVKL
# assay explanation: ELISA, coated APRIL; antibody 0.534 nM
measured quantity: OD450 nm

binder	measured quantity	numeric value
L1D12 (antibody, human IgG1, V domains shown, also called LID12) VH: QVQLVQSGGGLVQPGGSLRLSCAASGFTVSSNYMSWVRQAPGKGLEWVSVIYSGGSTYYADSVKGRFTISRDNSKNTLYLQMNSLRAEDTAVYYCARGFHDILTGYGMDVWGQGTTVTVSS VL: SSELTQDPAVSVALGQTVRITCQGDSLRNYYAGWYQQKPGQAPVLVIYGKNNRPSGIPDRFSGSSSGNTASLTITGTQAEDEADYYCSSRDNSGTHLVEFGGGTKLTVL	OD450 nm	0.0757
78C11D2D12 (antibody, V domains shown, Mouse hybridoma antibody purified on Protein G) VH: QVQLQQSGAELVRPGTSVKISCKASGYAFTNYWLGWVKQRPGHGLEWIGDIYPGSGNTYYNEKFKGKATLTADKSSSTAYMQLSSLTSEDSAVFFCAAYLYAMDYWGQGTSVTVSS VL: QIVLTQSPAIMSASPGEKVTITCSASSSVSYMHWFQQKPGTSPKLWIYSASNLASGVPARFSGSGSGTSYSLTISRMEAEDAATYYCQQRGSYPFTFGSGTKLEIK	OD450 nm	0.0553
